Each recorded value in this set is attributed to the supplement of paper PMC6555819.

Tested on: LXRa:RXRa (NR concentration 270 nM, RXRa partner concentration 90 nM)
protocol_text: PBM binding z-score (relative to random genomic background probes); higher = stronger binding; sequences stand for … in GC…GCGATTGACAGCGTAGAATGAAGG
Known PBM binding z-score of a selection of sequences
Response field accepts a number only; no unit should be typed.

Illustrative cases are given below, each with its answer.
CAGCCTAGGTGAGGGCCAGTATAGGAGGAACGTT | -0.622
CAAACTAGGTCACAGAGGTCAACGTCCGTGCGTA | 6.49
CCTACTGGGCCATTCAGAGGTCACTGATCATATG | 3.26

Simply: `TCGAGTAGGTTACGGGGGCATTCGGGGATGAAGA` , LXRa:RXRa (NR concentration 270 nM, RXRa partner concentration 90 nM), PBM binding z-score = 3.56

Simply: `AATACAGGGTCACTAGGCCCGAGTAGGTACGAAT` , LXRa:RXRa (NR concentration 270 nM, RXRa partner concentration 90 nM), PBM binding z-score = 4.62

Simply: `CCGAGTAGGTTACGAGGAGGCATTCAGTGCGAAT` , LXRa:RXRa (NR concentration 270 nM, RXRa partner concentration 90 nM), PBM binding z-score = 4.4

Simply: `CCAGAAAGGTGAAAGGTAACTCAGTCTGGTACGC` , LXRa:RXRa (NR concentration 270 nM, RXRa partner concentration 90 nM), PBM binding z-score = 2.14

Simply: `ATCGAATGGTCGAGGTGAGTATAGAGAAAGGGAA` , LXRa:RXRa (NR concentration 270 nM, RXRa partner concentration 90 nM), PBM binding z-score = -0.0823

Simply: `CCGAGTACGTTACGAGGGGGCATTCAGTGCGAAT` , LXRa:RXRa (NR concentration 270 nM, RXRa partner concentration 90 nM), PBM binding z-score = 3.11

Simply: `CGTCAAAGTTCACCTAAGGTAACGTAAAGCACGC` , LXRa:RXRa (NR concentration 270 nM, RXRa partner concentration 90 nM), PBM binding z-score = 6.74

Simply: `ACTAGTTGGTCAGCTGAGGTCACACTCAATTCGG` , LXRa:RXRa (NR concentration 270 nM, RXRa partner concentration 90 nM), PBM binding z-score = 3.19

Simply: `CTATGTAGGTTAAGGGGGTTATTCAGTTTGAAAG` , LXRa:RXRa (NR concentration 270 nM, RXRa partner concentration 90 nM), PBM binding z-score = 2.74
